test system: 24.0 GACCACAGCCCCCAGCAGGGGAGGCCCCCAGCAGGGGAGGCCCACACCTGCCCCAGCACCT; assay: fraction of 1-bp insertions among edited reads; higher = more 1-bp insertion outcomes; details: mESC; 2uM; 72 h treatment, harvest day 5
assay-metric: fraction of 1-bp insertions among edited reads
Just the number.

Examples from the recorded data:
| compound | result-value |
| --- | --- |
| Nc1cc(F)ccc1NC(=O)c1ccc(CNC(=O)/C=C/c2cccnc2)cc1 [Tucidinostat (Chidamide)] | 0.103 |
| Cc1cc(C)nc(SCC(=O)Nc2ncc(Cc3cccc4ccccc34)s2)n1 | 0.105 |
| CCCCOc1c(C(=O)c2c(F)cc(C)cc2F)c[nH]c2nncc1-2 | 0.0164 |

Asked: # lookup: 24.0 GACCACAGCCCCCAGCAGGGGAGGCCCCCAGCAGGGGAGGCCCACACCTGCCCCAGCACCT fraction of 1-bp insertions among edited reads, key = CC(=O)O/N=C1\C(=O)N(Cc2cc(Cl)ccc2Cl)c2ccc(Cl)cc21
Given back: 0.0444
